- TEST PROTOCOL: Ratio of IC50 for human KBV1 cells to human KB31 cells after 16 hrs
- Type: cell-based
- CONDITION NOTES: KBV1 cells and KB31 cells, read-out: Ratio IC50
PROPERTY MEASURED: selectivity ratio at 16 h
Reply with just the number.

q: Data request, read-out selectivity ratio at 16 h, for `CN(C)C(=O)N1CC(c2cc(F)ccc2F)=C[C@@]1(CCCNCCF)c1ccccc1`
a: 32

q: Continue with `CN(C)C(=O)N1CC(c2cc(F)ccc2F)=C[C@@]1(CCCNCC(F)(F)F)c1ccccc1`
a: 1

q: Lookup `CN(C)C(=O)N1CC(c2cc(F)ccc2F)=C[C@@]1(CC[C@H](N)C(F)F)c1ccccc1`
a: 5

###

- TEST PROTOCOL: Partition coefficient, log P of the compound
- Assay type: physicochemical
- CONDITION NOTES: octanol/water
Record YES whenever logP is at 3 or higher; record NO when lower.

q: Has `CN(C)C(=O)N1CC(c2cc(F)ccc2F)=C[C@@]1(CCCNCC(F)F)c1ccccc1` a recorded logP greater than or equal to 3?
a: YES

q: Same thing, different molecule: `CN(C)C(=O)N1CC(c2cc(F)ccc2F)=C[C@@]1(CCCNCC(F)(F)F)c1ccccc1`
a: YES

q: For `CN(C)C(=O)N1CC(c2cc(F)ccc2F)=C[C@@]1(CCCN)c1ccccc1` then?
a: NO

q: Thanks! And `CN(C)C(=O)N1CC(c2cc(F)ccc2F)=C[C@@]1(CC[C@H](N)C(F)F)c1ccccc1` ?
a: YES

q: Try the molecule `CN(C)C(=O)N1CC(c2cc(F)ccc2F)=C[C@@]1(CCCNCCF)c1ccccc1`
a: NO

q: Try `CCNCCC[C@@]1(c2ccccc2)C=C(c2cc(F)ccc2F)CN1C(=O)N(C)C` next.
a: NO

###

- SYSTEM TESTED: Kinesin-like protein KIF11 (Homo sapiens)
- TEST PROTOCOL: Inhibition of KSP
pIC50: −log10 of the molar value.
Note to self: values exactly at 8 are fulfilled. So pIC50 at or above 8 is fulfilled, below is not fulfilled.

Solved entries (count: 2):
>>> label("CN(C)C(=O)N1CC(c2cc(F)ccc2F)=C[C@@]1(CC[C@H](N)C(F)F)c1ccccc1")
"fulfilled"
>>> label("CN(C)C(=O)N1CC(c2cc(F)ccc2F)=C[C@@]1(CCCN)c1ccccc1")
"fulfilled"

# ---- query compound ----
q: Quick check, pIC50 >= 8? `CN(C)C(=O)N1CC(c2cc(F)ccc2F)=C[C@@]1(CCCNCC(F)(F)F)c1ccccc1`
a: not fulfilled

###

# IC50 listing for each entry below
- SYSTEM TESTED: Kinesin-like protein KIF11 (Homo sapiens, UniProt P52732)
- TEST PROTOCOL: Inhibition of KSP in KBV1 cells overexpressing Pgp
- Assay type: cell-based
Express your answer in µM, writing the number without its unit.

>>> endpoint_value("CN(C)C(=O)N1CC(c2cc(F)ccc2F)=C[C@@]1(CCCN)c1ccccc1")
28

Lab note: next compound to report on.
q: # value lookup — system Kinesin-like protein KIF11 (Homo sapiens, UniProt P52732), readout IC50, item `CN(C)C(=O)N1CC(c2cc(F)ccc2F)=C[C@@]1(CC[C@H](N)C(F)F)c1ccccc1`
a: 0.123

###

- SYSTEM TESTED: Kinesin-like protein KIF11 (Homo sapiens, UniProt P52732)
- Sequence (P52732 whole entry): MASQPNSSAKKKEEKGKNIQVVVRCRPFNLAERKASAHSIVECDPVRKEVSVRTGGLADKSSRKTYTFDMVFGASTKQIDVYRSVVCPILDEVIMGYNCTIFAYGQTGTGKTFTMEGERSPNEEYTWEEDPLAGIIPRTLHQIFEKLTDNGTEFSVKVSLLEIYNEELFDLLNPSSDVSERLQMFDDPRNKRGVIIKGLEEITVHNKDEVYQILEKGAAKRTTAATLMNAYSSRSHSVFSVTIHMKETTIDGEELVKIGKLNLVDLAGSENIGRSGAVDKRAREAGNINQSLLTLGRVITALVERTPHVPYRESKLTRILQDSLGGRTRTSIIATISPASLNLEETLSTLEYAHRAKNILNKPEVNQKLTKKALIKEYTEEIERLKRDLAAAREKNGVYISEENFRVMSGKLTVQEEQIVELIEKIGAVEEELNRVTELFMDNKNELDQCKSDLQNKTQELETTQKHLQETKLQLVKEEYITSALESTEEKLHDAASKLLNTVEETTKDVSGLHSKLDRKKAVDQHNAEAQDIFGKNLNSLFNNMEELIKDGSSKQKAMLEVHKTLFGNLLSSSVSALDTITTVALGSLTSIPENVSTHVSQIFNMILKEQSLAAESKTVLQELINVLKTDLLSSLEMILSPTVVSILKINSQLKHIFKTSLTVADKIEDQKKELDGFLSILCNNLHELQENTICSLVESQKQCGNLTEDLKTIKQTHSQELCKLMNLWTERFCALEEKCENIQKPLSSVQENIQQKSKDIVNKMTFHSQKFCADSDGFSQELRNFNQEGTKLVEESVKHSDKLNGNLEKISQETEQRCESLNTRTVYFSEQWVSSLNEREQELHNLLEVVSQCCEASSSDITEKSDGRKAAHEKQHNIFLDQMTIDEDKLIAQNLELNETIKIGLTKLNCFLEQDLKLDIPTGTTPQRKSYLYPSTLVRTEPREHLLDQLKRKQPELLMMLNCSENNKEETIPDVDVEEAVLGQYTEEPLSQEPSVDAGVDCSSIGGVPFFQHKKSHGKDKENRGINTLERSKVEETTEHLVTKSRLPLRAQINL
- TEST PROTOCOL: Inhibition of KSP in KB31 cells
- Format: cell-based
PROPERTY MEASURED: pIC50
To interpret pIC50, take it as minus log10 of a concentration measured in moles per litre.

q: Form field: reported pIC50 of `CN(C)C(=O)N1CC(c2cc(F)ccc2F)=C[C@@]1(CC[C@H](N)C(F)F)c1ccccc1`
a: 7.62

###

- SYSTEM TESTED: UniProt Q12809
- Sequence (Q12809 whole entry): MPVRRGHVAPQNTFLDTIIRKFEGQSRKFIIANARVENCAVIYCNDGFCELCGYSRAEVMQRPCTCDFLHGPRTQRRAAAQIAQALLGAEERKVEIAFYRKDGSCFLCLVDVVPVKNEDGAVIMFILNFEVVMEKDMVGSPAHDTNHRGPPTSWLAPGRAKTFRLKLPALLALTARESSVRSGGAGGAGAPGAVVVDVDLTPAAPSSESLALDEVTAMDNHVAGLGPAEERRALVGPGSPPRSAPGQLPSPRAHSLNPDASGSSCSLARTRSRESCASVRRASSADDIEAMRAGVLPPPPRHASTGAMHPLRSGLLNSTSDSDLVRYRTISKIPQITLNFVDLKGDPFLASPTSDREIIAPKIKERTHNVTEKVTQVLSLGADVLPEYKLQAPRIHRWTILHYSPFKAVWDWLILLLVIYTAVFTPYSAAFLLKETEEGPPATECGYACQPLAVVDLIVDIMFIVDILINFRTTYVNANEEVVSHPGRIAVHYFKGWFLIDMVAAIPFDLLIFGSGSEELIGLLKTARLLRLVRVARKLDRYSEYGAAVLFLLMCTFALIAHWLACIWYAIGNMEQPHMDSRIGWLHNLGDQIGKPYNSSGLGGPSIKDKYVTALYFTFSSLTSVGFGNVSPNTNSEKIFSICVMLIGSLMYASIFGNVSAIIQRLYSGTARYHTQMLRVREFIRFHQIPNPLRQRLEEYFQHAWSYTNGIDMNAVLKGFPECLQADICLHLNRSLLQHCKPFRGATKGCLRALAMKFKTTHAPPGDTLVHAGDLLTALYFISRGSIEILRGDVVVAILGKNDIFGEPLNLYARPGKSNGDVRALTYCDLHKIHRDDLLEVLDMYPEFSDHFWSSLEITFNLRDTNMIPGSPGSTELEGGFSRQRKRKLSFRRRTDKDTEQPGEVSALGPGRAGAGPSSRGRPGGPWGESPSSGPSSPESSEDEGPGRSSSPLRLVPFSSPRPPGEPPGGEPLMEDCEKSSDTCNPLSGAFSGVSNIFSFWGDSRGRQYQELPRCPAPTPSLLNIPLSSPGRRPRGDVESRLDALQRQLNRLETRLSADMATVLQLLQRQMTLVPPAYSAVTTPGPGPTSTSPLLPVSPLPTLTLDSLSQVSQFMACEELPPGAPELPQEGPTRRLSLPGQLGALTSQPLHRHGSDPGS
- TEST PROTOCOL: Inhibition of hERG expressed in CHO cells by cell voltage clamp assay
The entries below are paired with their reported IC50.

See these solved cases before continuing.
>>> endpoint_value("CN(C)C(=O)N1CC(c2cc(F)ccc2F)=C[C@@]1(CC[C@H](N)C(F)F)c1ccccc1")
"15.9 µM"
>>> endpoint_value("CN(C)C(=O)N1N=C(c2cc(F)ccc2F)C[C@@]1(CCCN)c1ccccc1")
"19.3 µM"

Next molecule, IC50 to be filled in.
q: // fetch UniProt Q12809 IC50 for `CN(C)C(=O)N1CC(c2cc(F)ccc2F)=C[C@@]1(CCCN)c1ccccc1`
a: 7.1 µM

###

- Test system: MDR1
- TEST PROTOCOL: Efflux ratio of permeability from basolateral to apical over apical to basolateral side of the […] cell transfected with MDR1 by monolayer transport assay
- Type: ADME, cell-based
- CONDITION NOTES: LLC-PK1
PROPERTY MEASURED: efflux ratio
The reply should be a number, written without any unit.

>>> endpoint_value("CN(C)C(=O)N1CC(c2cc(F)ccc2F)=C[C@@]1(CCCN)c1ccccc1")
18.5

As a next step, examine the compound that follows.
q: State the recorded efflux ratio for this entry: `CN(C)C(=O)N1CC(c2cc(F)ccc2F)=C[C@@]1(CC[C@H](N)C(F)F)c1ccccc1`
a: 2.5

###

Each entry below carries its recorded solubility.
- TEST PROTOCOL: Solubility in 0.1 M citrate at pH 4.0
- Assay type: physicochemical
- CONDITION NOTES: 0.1 M citrate buffer

q: Consider the compound `CN(C)C(=O)N1CC(c2cc(F)ccc2F)=C[C@@]1(CCCN)c1ccccc1` and give its measured solubility.
a: > 12 mg/mL

q: What would you report for `CN(C)C(=O)N1CC(c2cc(F)ccc2F)=C[C@@]1(CC[C@H](N)C(F)F)c1ccccc1` ?
a: > 10 mg/mL

q: Also, `CN(C)C(=O)N1N=C(c2cc(F)ccc2F)C[C@@]1(CCCN)c1ccccc1` please.
a: > 12 mg/mL

###

- TEST PROTOCOL: Dissociation constant, pKa of the compound
- Format: physicochemical
Please enter t where pKa is greater than or equal to 9, and f where it is lower.

Previously resolved entries follow.
>>> label("CN(C)C(=O)N1N=C(c2cc(F)ccc2F)C[C@@]1(CCCN)c1ccccc1")
"t"
>>> label("CN(C)C(=O)N1CC(c2cc(F)ccc2F)=C[C@@]1(CCCNCC(F)(F)F)c1ccccc1")
"f"
>>> label("CN(C)C(=O)N1CC(c2cc(F)ccc2F)=C[C@@]1(CCCN)c1ccccc1")
"t"
>>> label("CN(C)C(=O)N1CC(c2cc(F)ccc2F)=C[C@@]1(CCCNCC(F)F)c1ccccc1")
"f"

Now turn to the next compound.
q: Quick check, pKa >= 9? `CCNCCC[C@@]1(c2ccccc2)C=C(c2cc(F)ccc2F)CN1C(=O)N(C)C`
a: t
